Target: recombinant human SAE enzyme (Homo sapiens)
Sequence (Q9UBT2 1-640): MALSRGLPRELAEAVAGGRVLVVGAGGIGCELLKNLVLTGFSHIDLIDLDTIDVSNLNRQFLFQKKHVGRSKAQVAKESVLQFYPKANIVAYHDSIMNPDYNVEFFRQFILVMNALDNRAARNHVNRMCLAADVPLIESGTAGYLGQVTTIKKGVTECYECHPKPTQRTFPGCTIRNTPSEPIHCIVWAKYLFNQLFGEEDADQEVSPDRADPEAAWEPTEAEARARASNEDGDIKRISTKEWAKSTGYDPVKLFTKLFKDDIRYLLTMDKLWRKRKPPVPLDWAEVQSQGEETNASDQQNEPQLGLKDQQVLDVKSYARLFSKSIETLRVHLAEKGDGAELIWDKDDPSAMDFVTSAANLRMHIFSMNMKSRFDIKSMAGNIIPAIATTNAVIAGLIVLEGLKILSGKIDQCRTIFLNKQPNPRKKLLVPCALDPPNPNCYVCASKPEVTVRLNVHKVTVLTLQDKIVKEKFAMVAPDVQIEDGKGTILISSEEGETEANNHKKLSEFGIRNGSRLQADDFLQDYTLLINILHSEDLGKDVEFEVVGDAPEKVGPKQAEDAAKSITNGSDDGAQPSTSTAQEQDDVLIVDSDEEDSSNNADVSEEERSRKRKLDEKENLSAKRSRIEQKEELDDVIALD
Sequence (Q9UBE0 1-346 partner): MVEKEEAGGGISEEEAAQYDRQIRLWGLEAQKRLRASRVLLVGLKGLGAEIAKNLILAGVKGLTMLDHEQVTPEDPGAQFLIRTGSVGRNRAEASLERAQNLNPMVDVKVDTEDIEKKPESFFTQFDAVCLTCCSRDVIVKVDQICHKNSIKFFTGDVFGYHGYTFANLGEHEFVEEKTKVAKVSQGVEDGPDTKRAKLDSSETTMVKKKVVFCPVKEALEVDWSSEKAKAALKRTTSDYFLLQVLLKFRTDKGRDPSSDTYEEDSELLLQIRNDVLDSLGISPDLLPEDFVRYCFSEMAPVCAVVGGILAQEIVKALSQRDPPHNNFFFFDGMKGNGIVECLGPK
Assay: SAE HTRF Enzyme Assay
Type: biochemical
Conditions: compound concentration 0.111 μM; read-out: Percent Inhibition
Attribute measured: inhibition at 0.111 µM (%)
Express it in %; write the number only.

Record request: inhibition at 0.111 µM value, item NS(=O)(=O)OC[C@H]1C[C@@H](Nc2ncncc2C(=O)c2ccn(CC(=O)c3ccccc3)n2)[C@H](O)[C@@H]1O
99

Reported inhibition at 0.111 µM for CN(c1ncncc1C(=O)c1ccn(Cc2cccc(Br)c2)n1)[C@@H]1C[C@H](COS(N)(=O)=O)[C@@H](O)C1 : what is it?
67

// query inhibition at 0.111 µM value for entry NS(=O)(=O)OC[C@H]1C[C@@H](Nc2ncncc2C(=O)c2ccn(Cc3ccc(F)c(Br)c3)c2)[C@@H](F)[C@@H]1O
99

Data request, read-out inhibition at 0.111 µM, for NS(=O)(=O)OC[C@H]1C[C@@H](Nc2ncncc2C(=O)c2ccn(Cc3cncc(Br)c3)c2)C[C@@H]1O
99

# lookup: inhibition at 0.111 µM of NS(=O)(=O)OC[C@H]1C[C@@H](Nc2ncncc2C(=O)c2ccn(CC3CCCO3)n2)C[C@@H]1O (mixture of isomers)
38

Would you kindly share the measured inhibition at 0.111 µM for NS(=O)(=O)OC[C@H]1C[C@@H](Nc2ncncc2C(=O)c2ccn(Cc3cccc(F)c3F)n2)C[C@@H]1O ?
99

Quick check: inhibition at 0.111 µM of NS(=O)(=O)OC[C@H]1C[C@@H](Nc2ncncc2C(=O)c2ccn(Cc3ccc(Cl)c(C(F)(F)F)c3)n2)[C@H](O)[C@@H]1O ?
99

Would you kindly share the measured inhibition at 0.111 µM for NS(=O)(=O)OC[C@H]1C[C@@H](Nc2ncncc2C(=O)c2ccn(Cc3ccc(C(F)(F)F)o3)n2)[C@H](O)[C@@H]1O ?
98

Quick check: inhibition at 0.111 µM of NS(=O)(=O)OC[C@H]1C[C@@H](Nc2ncncc2C(=O)c2ccn(Cc3cccc(Br)n3)n2)C[C@@H]1O ?
99

May I ask what inhibition at 0.111 µM has been recorded for COc1ncccc1Cn1ccc(C(=O)c2cncnc2N[C@@H]2C[C@H](COS(N)(=O)=O)[C@@H](O)C2)n1 ?
87

What inhibition at 0.111 µM value was documented for this compound, NS(=O)(=O)OC[C@H]1C[C@@H](Nc2ncncc2C(=O)c2ccn(Cc3ccc(Cl)c(C(F)(F)F)c3)n2)[C@@H](F)[C@@H]1O ?
90

So what does the record say about inhibition at 0.111 µM for NS(=O)(=O)OC[C@H]1C[C@@H](Nc2ncncc2C(=O)c2ccn(Cc3cc(Br)ccc3Cl)n2)C[C@@H]1O ?
99

Could you share which inhibition at 0.111 µM value was measured for NS(=O)(=O)OC[C@H]1C[C@@H](Nc2ncncc2C(=O)c2ccn(Cc3ccc(Cl)c(C(F)(F)F)c3)n2)C[C@@H]1O ?
97

Suppose we examine the compound NS(=O)(=O)OC[C@H]1C[C@@H](Nc2ncncc2C(=O)c2cc(Cl)n(Cc3ccc(F)c(Br)c3)c2)[C@@H](F)[C@@H]1O ; what inhibition at 0.111 µM value has been reported?
98

Field request: inhibition at 0.111 µM | item: Cc1cc(Cn2ccc(C(=O)c3cncnc3N[C@@H]3C[C@H](COS(N)(=O)=O)[C@@H](O)C3)n2)ccc1F
98

# inhibition at 0.111 µM lookup, item NS(=O)(=O)OC[C@H]1C[C@@H](Nc2ncncc2C(=O)c2ccn(Cc3ccc(Cl)c(Cl)c3)n2)[C@H](O)[C@@H]1O
96

Name the recorded inhibition at 0.111 µM for CCc1cc(C(=O)c2cncnc2N[C@@H]2C[C@H](COS(N)(=O)=O)[C@@H](O)[C@@H]2F)cn1Cc1cccc(Br)c1 .
99

Endpoint output: inhibition at 0.111 µM of NS(=O)(=O)OC[C@H]1C[C@@H](Nc2ncncc2C(=O)c2ccn(Cc3cccc(C4(O)COC4)c3)n2)C[C@@H]1O . Value?
87

Fill in: inhibition at 0.111 µM of NS(=O)(=O)OC[C@H]1C[C@@H](Nc2ncncc2C(=O)c2ccn(Cc3ccc4ccccc4c3)n2)C[C@@H]1O is ___
96

Given NS(=O)(=O)OC[C@H]1C[C@@H](Nc2ncncc2C(=O)c2ccn(Cc3cn4ccccc4n3)n2)C[C@@H]1O , state its recorded inhibition at 0.111 µM.
98

Please give the measured inhibition at 0.111 µM for this compound: Cc1cccc(Cn2nc(C(=O)c3cncnc3N[C@@H]3C[C@H](COS(N)(=O)=O)[C@@H](O)C3)cc2C)c1
99

I'd like to know its inhibition at 0.111 µM. The compound in question is NS(=O)(=O)OC[C@H]1C[C@@H](Nc2ncncc2C(=O)c2ccn(Cc3cc4ccccc4o3)n2)C[C@@H]1O
99

Requested field: inhibition at 0.111 µM. Item: NS(=O)(=O)OC[C@H]1C[C@@H](Nc2ncncc2C(=O)c2ccn(Cc3c(F)cc(F)cc3F)n2)C[C@@H]1O
93

May I ask what inhibition at 0.111 µM has been recorded for NS(=O)(=O)OC[C@H]1C[C@@H](Nc2ncncc2C(=O)c2ccn(Cc3ccccc3)n2)[C@@H](F)[C@@H]1O ?
96

Give its inhibition at 0.111 µM value. Item: CC(C)(C)c1cccc(Cn2ccc(C(=O)c3cncnc3N[C@@H]3C[C@H](COS(N)(=O)=O)[C@@H](O)C3)n2)c1
91
